Measured IC50 of individual entries
test: Inhibitory activity against Melanin-concentrating hormone receptor 1; design: species or system Homo sapiens
measure_name: IC50 (nM)

• Cc1cc(N2CCOCC2)nc2ccc(NC(=O)COc3ccc(C(F)(F)F)cc3)cc12 = 91
• Cc1cc(N2CCN(C)CC2)nc2ccc(NC(=O)COc3ccc(OC(F)(F)F)cc3)cc12 = 36
• Cc1cc(N2CCN(C)CC2)nc2ccc(NC(=O)COc3ccc(F)cc3)cc12 = 1680
• Cc1cc(NC(C)C)nc2ccc(NC(=O)COc3ccc(C(F)(F)F)cc3)cc12 = 11
• Cc1cc(NC2CCCC2)nc2ccc(NC(=O)COc3ccc(C(F)(F)F)cc3)cc12 = 38
• Cc1cc(N2CCCC2)nc2ccc(NC(=O)COc3ccc(C(F)(F)F)cc3)cc12 = 15
• Cc1cc(N2CCN(C)CC2)nc2ccc(NC(=O)COc3ccc(C#N)cc3)cc12 = 370
• Cc1cc(N2CCN(C)CC2)nc2ccc(NC(=O)COc3ccc(Cl)cc3)cc12 = 55
• Cc1cc(N2CCCCC2)nc2ccc(NC(=O)COc3ccc(C(F)(F)F)cc3)cc12 = 226
• Cc1cc(N2CCN(C)CC2)nc2ccc(NC(=O)COc3ccc(C(F)(F)F)cc3)cc12 = 14
• Cc1ccc(OCC(=O)Nc2ccc3nc(N4CCN(C)CC4)cc(C)c3c2)cc1 = 80
• Cc1ccccc1OCC(=O)Nc1ccc2nc(N3CCN(C)CC3)cc(C)c2c1 = 1050
• Cc1cc(N(C)C)nc2ccc(NC(=O)COc3ccc(C(F)(F)F)cc3)cc12 = 174
• Cc1cc(N2CCN(C)CC2)nc2ccc(NC(=O)COc3ccccc3Cl)cc12 = 470
• Cc1cc(N(C)CCN(C)C)nc2ccc(NC(=O)COc3ccc(C(F)(F)F)cc3)cc12 = 22
• Cc1cc(N2CCN(C)CC2)nc2ccc(NC(=O)CCc3ccc(Cl)cc3)cc12 = 300
• COc1ccc(OCC(=O)Nc2ccc3nc(N4CCN(C)CC4)cc(C)c3c2)cc1 = 152

====

target: 5-hydroxytryptamine receptor 2B (Homo sapiens)
Sequence (P41595 whole entry): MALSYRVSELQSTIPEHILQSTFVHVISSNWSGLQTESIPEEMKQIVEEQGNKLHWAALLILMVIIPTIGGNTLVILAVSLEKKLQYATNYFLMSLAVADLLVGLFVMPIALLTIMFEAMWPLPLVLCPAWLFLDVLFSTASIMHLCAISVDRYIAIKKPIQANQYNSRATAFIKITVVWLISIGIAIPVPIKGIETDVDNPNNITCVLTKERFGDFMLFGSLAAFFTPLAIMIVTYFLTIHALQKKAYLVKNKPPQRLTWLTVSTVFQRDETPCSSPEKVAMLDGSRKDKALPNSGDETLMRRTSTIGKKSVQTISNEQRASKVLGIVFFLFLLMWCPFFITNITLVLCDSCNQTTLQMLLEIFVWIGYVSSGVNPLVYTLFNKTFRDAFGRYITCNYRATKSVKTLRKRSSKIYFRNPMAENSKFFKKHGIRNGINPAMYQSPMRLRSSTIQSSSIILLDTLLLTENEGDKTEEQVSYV
measure_name: IC50 (nM)

• Cc1cc(NC(C)C)nc2ccc(NC(=O)COc3ccc(C(F)(F)F)cc3)cc12 = 400

====

species: Homo sapiens; assay: Selectivity ratio for MCH-1R versus 5-HT2B receptor
measure_name: Ratio

* Cc1cc(N2CCN(C)CC2)nc2ccc(NC(=O)COc3ccc(C(F)(F)F)cc3)cc12 | 32
* Cc1cc(NC(C)C)nc2ccc(NC(=O)COc3ccc(C(F)(F)F)cc3)cc12 | 36

====

Measured inhibition of individual entries
molecular target: Melanin-concentrating hormone receptor 1 (Homo sapiens, UniProt Q99705); experiment: Inhibitory activity against Melanin-concentrating hormone receptor 1 at 1 uM
Sequence (Q99705 whole entry): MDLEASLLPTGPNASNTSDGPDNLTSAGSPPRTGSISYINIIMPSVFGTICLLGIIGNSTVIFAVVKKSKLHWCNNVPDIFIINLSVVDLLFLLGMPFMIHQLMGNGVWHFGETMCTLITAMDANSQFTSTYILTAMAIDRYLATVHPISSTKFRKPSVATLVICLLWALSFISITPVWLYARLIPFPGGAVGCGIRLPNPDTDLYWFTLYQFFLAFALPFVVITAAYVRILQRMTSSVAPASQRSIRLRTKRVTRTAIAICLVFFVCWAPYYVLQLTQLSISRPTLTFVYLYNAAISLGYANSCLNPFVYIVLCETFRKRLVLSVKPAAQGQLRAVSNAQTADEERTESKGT
measure_name: inhibition (%)

• Cc1cc(N(C)Cc2ccccc2)nc2ccc(NC(=O)COc3ccc(C(F)(F)F)cc3)cc12 = 40
• Cc1cc(N2CCN(C)CC2)nc2ccc(NC(=O)CSCc3ccc(Cl)cc3)cc12 = 38
• COc1cccc(OCC(=O)Nc2ccc3nc(N4CCN(C)CC4)cc(C)c3c2)c1 = 9
• Cc1cc(N2CCN(C)CC2)nc2ccc(NC(=O)COc3ccccc3)cc12 = 2
• Cc1cc(N2CCN(C)CC2)nc2ccc(NC(=O)COCc3ccc(Cl)cc3)cc12 = 19
